Biological target: UniProt:O39930
Assay: Effective dose for RNA dependent RNA polymerase Nonstructural protein 5B (HCV NS5B polymerase) in Hepatitis C virus
quantity kind: ED50

- compound: "O=C(O)/C(=C/c1ccc(Oc2ccccc2Br)cc1)NC(=O)c1cccc(F)c1"
  reported: "53 µM"
- compound: "CC(O)C(=O)N/C(=C\\c1ccc(Oc2ccccc2I)cc1)C(=O)O (stereo not given)"
  reported: "> 100 µM"
- compound: "O=C(Nc1cccc(O)c1)/C(=C/c1ccc(Oc2ccccc2Br)cc1)NC(=O)c1ccccc1"
  reported: "15 µM"
- compound: "O=C(CO)N/C(=C\\c1ccc(Oc2ccccc2I)cc1)C(=O)O"
  reported: "> 100 µM"

Query :: Please report the recorded ED50 for O=C(NCCO)/C(=C/c1ccc(Oc2ccccc2Br)cc1)NC(=O)c1ccccc1 .
Result :: 8 µM

###

ED50: recorded values
Target: RNA-directed RNA polymerase (Hepacivirus hominis)
Test: Effective dose for RNA dependent RNA polymerase Nonstructural protein 5B (HCV NS5B polymerase) in Hepatitis C virus

- compound structure string: "O=C(CCc1ccc(C(F)(F)F)cc1)N/C(=C\\c1ccc(Oc2ccccc2Br)cc1)C(=O)O"
  ED50: "> 100 µM"
- compound structure string: "O=C(Cc1ccc(I)cc1)N/C(=C\\c1ccc(Oc2ccccc2Br)cc1)C(=O)O"
  ED50: "> 100 µM"

Below: the item to evaluate.
Query :: Please report the recorded ED50 for O=C(CC1CCCC1)N/C(=C\c1ccc(Oc2ccccc2Br)cc1)C(=O)O .
Result :: > 100 µM

###

Target: RNA-directed RNA polymerase (Hepacivirus hominis) (UniProt O39930)
Sequence (O39930 1-591): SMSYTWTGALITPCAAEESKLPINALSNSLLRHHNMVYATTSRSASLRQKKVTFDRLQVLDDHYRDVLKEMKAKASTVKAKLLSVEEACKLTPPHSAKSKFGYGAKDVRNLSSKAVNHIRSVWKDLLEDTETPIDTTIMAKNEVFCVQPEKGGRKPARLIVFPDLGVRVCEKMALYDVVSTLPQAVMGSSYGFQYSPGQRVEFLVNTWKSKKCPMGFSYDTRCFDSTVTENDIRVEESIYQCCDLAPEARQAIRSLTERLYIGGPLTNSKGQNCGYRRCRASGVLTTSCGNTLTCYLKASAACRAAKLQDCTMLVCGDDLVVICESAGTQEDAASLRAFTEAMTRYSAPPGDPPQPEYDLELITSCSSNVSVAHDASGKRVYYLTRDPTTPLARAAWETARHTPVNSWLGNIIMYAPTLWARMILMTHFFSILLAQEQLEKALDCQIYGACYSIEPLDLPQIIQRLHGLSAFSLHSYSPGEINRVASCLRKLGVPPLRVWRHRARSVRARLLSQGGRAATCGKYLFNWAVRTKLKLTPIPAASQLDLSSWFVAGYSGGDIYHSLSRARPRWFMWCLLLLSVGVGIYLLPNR
Assay: Effective dose for RNA dependent RNA polymerase Nonstructural protein 5B (HCV NS5B polymerase) in Hepatitis C virus
ED50: recorded values

- compound: "O=C(CCc1ccc(F)cc1)N/C(=C\\c1ccc(Oc2ccccc2Br)cc1)C(=O)O"
  ED50: "> 100 µM"

Query :: Short answer please: ED50, RNA-directed RNA polymerase (Hepacivirus hominis) (UniProt O39930), entry O=C(O)CCC(=O)N/C(=C\c1ccc(Oc2ccccc2I)cc1)C(=O)O
Result :: > 100 µM

Query :: Short answer please: ED50, RNA-directed RNA polymerase (Hepacivirus hominis) (UniProt O39930), entry O=C(CCC1CCCCC1)N/C(=C\c1ccc(Oc2ccccc2Br)cc1)C(=O)O
Result :: > 100 µM

Query :: Short answer please: ED50, RNA-directed RNA polymerase (Hepacivirus hominis) (UniProt O39930), entry Cc1ccc(C(=O)N/C(=C\c2ccc(Oc3ccccc3Br)cc2)C(=O)O)cc1
Result :: > 100 µM

Query :: Short answer please: ED50, RNA-directed RNA polymerase (Hepacivirus hominis) (UniProt O39930), entry O=C(O)/C(=C/c1ccc(Oc2ccccc2Br)cc1)NC(=O)c1ccccc1
Result :: 28 µM

Query :: Short answer please: ED50, RNA-directed RNA polymerase (Hepacivirus hominis) (UniProt O39930), entry O=C(CC1CCCCC1)N/C(=C\c1ccc(Oc2ccccc2Br)cc1)C(=O)O
Result :: > 100 µM

Query :: Short answer please: ED50, RNA-directed RNA polymerase (Hepacivirus hominis) (UniProt O39930), entry O=C(CCC1CCCC1)N/C(=C\c1ccc(Oc2ccccc2Br)cc1)C(=O)O
Result :: 12 µM

Query :: Short answer please: ED50, RNA-directed RNA polymerase (Hepacivirus hominis) (UniProt O39930), entry O=C(O)/C(=C/c1ccc(Oc2ccccc2Br)cc1)NC(=O)c1ccc(F)cc1F
Result :: > 100 µM

Query :: Short answer please: ED50, RNA-directed RNA polymerase (Hepacivirus hominis) (UniProt O39930), entry O=C(O)/C(=C/c1ccc(Oc2ccccc2Br)cc1)NC(=O)C1CCCCC1
Result :: > 100 µM

Query :: Short answer please: ED50, RNA-directed RNA polymerase (Hepacivirus hominis) (UniProt O39930), entry O=C(NCc1ccccc1)/C(=C/c1ccc(Oc2ccccc2Br)cc1)NC(=O)c1ccccc1
Result :: > 50 µM

Query :: Short answer please: ED50, RNA-directed RNA polymerase (Hepacivirus hominis) (UniProt O39930), entry O=C(O)/C(=C/c1ccc(Oc2c(F)cccc2Br)cc1)NC(=O)c1ccccc1
Result :: 60 µM

Query :: Short answer please: ED50, RNA-directed RNA polymerase (Hepacivirus hominis) (UniProt O39930), entry O=C(O)/C(=C/c1ccc(Oc2ccccc2Br)cc1)NC(=O)c1ccc(Cl)cc1
Result :: > 100 µM

Where do the numbers come from? From ChEMBL document CHEMBL1145278.
